Source of measurements: patent US20170152239A1

- experimental.target: WT EZH2 (EZH2 4 protein complex: EZH2, EED, SUZ12, RbAp48) (Homo sapiens, UniProt O75530+Q09028+Q15022+Q15910)
- Sequence (Q15910 whole entry): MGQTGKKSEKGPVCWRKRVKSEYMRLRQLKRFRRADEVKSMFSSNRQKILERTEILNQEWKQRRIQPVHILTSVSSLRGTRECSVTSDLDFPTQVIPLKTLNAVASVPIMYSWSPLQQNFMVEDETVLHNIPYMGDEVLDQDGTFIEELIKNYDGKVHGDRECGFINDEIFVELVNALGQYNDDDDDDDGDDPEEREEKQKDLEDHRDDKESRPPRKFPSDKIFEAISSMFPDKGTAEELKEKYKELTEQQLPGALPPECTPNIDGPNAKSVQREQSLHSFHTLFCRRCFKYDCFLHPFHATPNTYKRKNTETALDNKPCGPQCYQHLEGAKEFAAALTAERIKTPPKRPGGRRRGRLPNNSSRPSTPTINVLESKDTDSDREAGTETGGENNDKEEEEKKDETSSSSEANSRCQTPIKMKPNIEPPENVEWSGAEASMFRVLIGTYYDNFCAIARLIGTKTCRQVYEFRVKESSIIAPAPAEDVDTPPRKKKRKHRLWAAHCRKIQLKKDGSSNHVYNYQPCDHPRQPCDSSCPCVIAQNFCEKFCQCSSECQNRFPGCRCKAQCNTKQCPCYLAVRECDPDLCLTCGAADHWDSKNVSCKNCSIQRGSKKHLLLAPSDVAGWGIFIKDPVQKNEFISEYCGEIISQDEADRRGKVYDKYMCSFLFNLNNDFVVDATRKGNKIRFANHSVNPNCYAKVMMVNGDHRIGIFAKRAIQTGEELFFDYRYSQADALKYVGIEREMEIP
- Sequence (O75530 whole entry partner): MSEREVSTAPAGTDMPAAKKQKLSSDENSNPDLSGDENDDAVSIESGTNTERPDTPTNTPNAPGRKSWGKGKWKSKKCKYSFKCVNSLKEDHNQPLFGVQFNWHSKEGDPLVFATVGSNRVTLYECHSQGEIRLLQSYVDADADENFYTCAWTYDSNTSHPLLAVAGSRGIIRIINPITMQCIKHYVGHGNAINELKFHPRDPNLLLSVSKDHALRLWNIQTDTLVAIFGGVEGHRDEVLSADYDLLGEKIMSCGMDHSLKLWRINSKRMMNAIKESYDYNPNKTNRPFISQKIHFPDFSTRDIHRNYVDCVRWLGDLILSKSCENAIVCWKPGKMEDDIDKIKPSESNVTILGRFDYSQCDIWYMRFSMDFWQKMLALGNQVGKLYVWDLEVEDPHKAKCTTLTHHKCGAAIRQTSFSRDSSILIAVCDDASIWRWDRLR
- Sequence (Q15022 whole entry partner): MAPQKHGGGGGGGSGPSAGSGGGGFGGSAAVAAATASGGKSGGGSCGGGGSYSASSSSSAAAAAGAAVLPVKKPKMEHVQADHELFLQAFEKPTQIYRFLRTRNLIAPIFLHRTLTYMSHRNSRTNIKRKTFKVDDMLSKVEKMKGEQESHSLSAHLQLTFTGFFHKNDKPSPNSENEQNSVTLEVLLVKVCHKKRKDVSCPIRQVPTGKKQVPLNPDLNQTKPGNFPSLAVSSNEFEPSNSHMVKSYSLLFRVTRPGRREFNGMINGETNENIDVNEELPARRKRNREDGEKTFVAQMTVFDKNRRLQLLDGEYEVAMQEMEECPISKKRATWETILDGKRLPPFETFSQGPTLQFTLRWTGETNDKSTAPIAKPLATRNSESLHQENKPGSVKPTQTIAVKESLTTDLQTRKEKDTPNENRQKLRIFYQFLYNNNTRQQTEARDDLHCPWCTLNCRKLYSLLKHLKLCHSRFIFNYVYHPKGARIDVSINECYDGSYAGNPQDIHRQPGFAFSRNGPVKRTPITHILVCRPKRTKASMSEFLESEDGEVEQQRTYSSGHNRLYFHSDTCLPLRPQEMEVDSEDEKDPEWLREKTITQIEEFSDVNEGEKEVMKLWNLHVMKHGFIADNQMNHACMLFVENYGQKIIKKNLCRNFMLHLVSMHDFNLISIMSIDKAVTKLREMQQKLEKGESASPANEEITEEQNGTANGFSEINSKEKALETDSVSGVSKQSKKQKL
- Sequence (Q09028 whole entry partner): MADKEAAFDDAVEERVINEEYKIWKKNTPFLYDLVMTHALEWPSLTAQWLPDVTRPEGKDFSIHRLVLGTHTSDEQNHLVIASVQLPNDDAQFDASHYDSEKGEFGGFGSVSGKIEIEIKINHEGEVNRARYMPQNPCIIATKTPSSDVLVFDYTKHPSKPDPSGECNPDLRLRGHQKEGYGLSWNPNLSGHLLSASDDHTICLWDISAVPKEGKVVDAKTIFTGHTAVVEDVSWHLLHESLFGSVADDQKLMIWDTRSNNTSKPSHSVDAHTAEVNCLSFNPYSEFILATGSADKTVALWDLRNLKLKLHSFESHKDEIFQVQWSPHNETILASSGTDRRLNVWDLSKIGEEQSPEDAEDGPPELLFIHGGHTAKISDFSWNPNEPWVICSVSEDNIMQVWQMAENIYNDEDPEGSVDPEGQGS
- measurement.notes: WT EZH2 nucleosome assay
- Type: biochemical
measured.quantity: IC50

input: Consider the compound `CNc1ncc(-c2cc(C(=O)NCc3c(C)cc(C)[nH]c3=O)c(C)c(-c3c(C)cnn3C)c2)cn1` and give its recorded IC50.
output: 35 nM

====

Overview of reported pIC50 across a group of molecules:
- experimental.target: WT EZH2 (EZH2 4 protein complex: EZH2, EED, SUZ12, RbAp48) (Homo sapiens, UniProt O75530+Q09028+Q15022+Q15910)
- measurement.notes: WT EZH2 nucleosome assay
- Format: biochemical
- run.parameters: nucleosome assay, 5 nM EZH2 4-protein complex, 1.5 μM SAM; read-out: WT EZH2 IC50
Field pIC50 (float): negative decimal logarithm of the concentration in molar.

The following molecules have reported results that may help.
Cc1cc(C)c(CNC(=O)c2nc(OCCN3CC(F)(F)C3)nc(-c3ccnn3C)c2C)c(=O)[nH]1 = 4.51
Cc1cc(C)c(CNC(=O)c2cccc(-c3ccnn3C)c2C)c(=O)[nH]1 = 6.47
COc1cc(OC)c(Cl)c(C(=O)NCc2c(C)cc(C)[nH]c2=O)c1Cl = 4.28

input: Consider the molecule `Cc1cc(C)c(CNC(=O)c2cc(-c3cnc(N)nc3)cc(-c3ccnn3C)c2C)c(=O)[nH]1` and give its recorded pIC50.
output: 7.08

input: Consider the molecule `COc1ccc(OC)c(C(=O)NCc2c(C)cc(C)[nH]c2=O)c1Cl` and give its recorded pIC50.
output: 4.43

input: Consider the molecule `Cc1cc(C)c(CNC(=O)c2cc(Cl)cc(-n3nnnc3C)c2C)c(=O)[nH]1` and give its recorded pIC50.
output: 5.61

input: Consider the molecule `CSc1nc(C(=O)NCc2c(C)cc(C)[nH]c2=O)c(C)c(-c2ccnn2C)n1` and give its recorded pIC50.
output: 5.20

input: Consider the molecule `COc1ccc(C(=O)NCc2c(C)cc(C)[nH]c2=O)c(Cl)c1OC` and give its recorded pIC50.
output: 4.27
